# TARGET_DESC: baboon ovarian GnRH receptor (baboon)
# EXPERIMENT: radioreceptor assay, baboon ovary membrane fraction, radiolabeled D-Arg(6)-chicken II GnRH-aza-Gly(10)-amide
Non-standard residues stand in square brackets, D forms with d. pGlu = O=C1CC[C@@H](C(=O)O)N1; azaGly = NNC(=O)O
VALUE_TYPE: Kd (nM)
Answers are plain numbers, in nM.

# input # get_value(readout='Kd', item= [pGlu]HWSH[dR]WYP[azaGly]-NH2 (also: also used radioiodinated as label) [D-Arg(6)-chicken II GnRH-aza-Gly(10)-amide] )
# output 10
